The reported numbers originate from PubChem BioAssay AID618.

Test system: MT1-MMP promoter luciferase reporter cells, luminescence
measurement_description: MT1-MMP gene expression reporter suppression – cell-based, luciferase reporter, luminescence (AID 618);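 further: actives suppress MT1-MMP promoter-driven transcription so potencies describe inhibitors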
Activity calls are given as the source filed them. How the calls were made is not given here.
Pick one and only one: t for active, f for inactive

Q. Please let me know the test result on file for "Oc1ccc(Nc2nc(N3CCCC3)c3ccccc3n2)cc1" .
A. t

Q. Please let me know the test result on file for O=C(Nc1nc2c(s1)CCCC2)C1COc2ccccc2O1 (configuration not stated) .
A. t

Q. Please let me know the test result on file for "Clc1cccc(-c2nnc(-c3ccccc3)o2)c1" .
A. t

Q. Please let me know the test result on file for "COc1ccc(-c2cc(C(=O)O)c(C)o2)cc1OC" .
A. t

Q. Please let me know the test result on file for "O=C(COc1ccc(CO)cc1Cl)Nc1ccc(F)cc1" .
A. t

Q. Please let me know the test result on file for "CC(=O)Nc1ccc2oc(-c3cc(F)c(F)cc3Cl)nc2c1" .
A. t

Q. Please let me know the test result on file for "O=C(c1cccc(COc2ccc(Cl)cc2Cl)c1)N1CCN(c2ccccn2)CC1" .
A. t

Q. Please let me know the test result on file for "CCCC(=O)Nc1ccc(-c2nc3cc(C)ccc3o2)cc1" .
A. t

Q. Please let me know the test result on file for "O=C1C(c2ccnc3ccccc23)=C(O)c2ccccc21" .
A. f

Q. Please let me know the test result on file for CC1CCc2nc(NC(=O)C3CCCO3)sc2C1 (configuration not stated) .
A. t

Q. Please let me know the test result on file for "COc1ccc(S(=O)(=O)N2CCN(C(=O)CCC3CCCC3)CC2)cc1" .
A. f

Q. Please let me know the test result on file for "Fc1ccccc1OCCSc1nnnn1-c1ccccc1" .
A. t

Q. Please let me know the test result on file for "Cc1cc(NCCCn2ccnc2)n2ncc(-c3ccc(Cl)cc3)c2n1" .
A. t

Q. Please let me know the test result on file for "N#C/C(=C\c1ccc(N2CCOCC2)o1)c1nc2ccccc2[nH]1" .
A. t

Q. Please let me know the test result on file for "Nc1ccc(C(=O)Nc2nc3ccccc3s2)cc1" .
A. t

Q. Please let me know the test result on file for "O=C1c2ccccc2C(=O)C1c1ccnc2ccccc12" .
A. t

Q. Please let me know the test result on file for "COc1cccc(C(=O)/C=C/Nc2cccc(O)c2)c1" .
A. t

Q. Please let me know the test result on file for "Cc1ccccc1NC(=O)c1cnc2ccccn2c1=O" .
A. t

Q. Please let me know the test result on file for "O=C(Nc1ccccn1)c1cc2ccccc2o1" .
A. f

Q. Please let me know the test result on file for "COc1ccc(-n2ncc3c(NC(C)C)ncnc32)cc1" .
A. t

Q. Please let me know the test result on file for "COc1ccc2nc(-c3ccc(N)cc3)[nH]c2c1" .
A. f

Q. Please let me know the test result on file for "O=C(/C=C\Nc1ccccn1)c1ccc(Cl)cc1" .
A. t

Q. Please let me know the test result on file for "Cc1ccc(-c2nc(-c3ccccn3)no2)cc1" .
A. t

Q. Please let me know the test result on file for "c1ccc(-c2cn3nc4c(nc3n2)CCCC4)cc1" .
A. t

Q. Please let me know the test result on file for "COCCn1c(C)cc(C(=O)CSc2nnc3ccccn23)c1C" .
A. t

Q. Please let me know the test result on file for "CCOc1ccc(-c2nnc(-c3ccco3)o2)cc1" .
A. t

Q. Please let me know the test result on file for Cc1cc(C(=O)CN2C(=O)c3ccccc3S2(=O)=O)c(C)n1CC1CCCO1 (configuration not stated) .
A. t

Q. Please let me know the test result on file for "O=c1c2c(nc3cc(-c4ccc(F)cc4)[nH]n13)CCCC2" .
A. t

Q. Please let me know the test result on file for "CC(C)(C)c1ccc(C(=O)Nc2ccc(CC(=O)O)cc2)o1" .
A. t

Q. Please let me know the test result on file for "CC(=O)Nc1ccc(OC(=O)N2CCCCC2)cc1" .
A. f

Q. Please let me know the test result on file for "CCc1ccc(-c2cc(C(=O)Nn3cnnc3)c3ccccc3n2)cc1" .
A. t

Q. Please let me know the test result on file for "CCCc1ccc(-c2ccc(F)c(N)c2)nc1" .
A. t

Q. Please let me know the test result on file for "Cc1ccc(-c2nc(N/N=C/c3ccncc3)c3ccccc3n2)cc1" .
A. t

Q. Please let me know the test result on file for "c1ccc(-c2noc(-c3cccs3)n2)nc1" .
A. f

Q. Please let me know the test result on file for CCCCOc1ccc(C(=O)C(CN2CCOCC2)c2ccccc2)cc1 (configuration not stated) .
A. t

Q. Please let me know the test result on file for "Cc1ccc(-c2nc3cc(N)ccc3o2)cc1" .
A. t

Q. Please let me know the test result on file for "N#Cc1c(NC(=O)CSc2ncn[nH]2)sc2c1CCCC2" .
A. t

Q. Please let me know the test result on file for "COC(=O)c1nn(-c2ccc(-c3ccccc3)cc2)cc1O" .
A. t

Q. Please let me know the test result on file for "COC(=O)CCn1nnc(-c2ccc(C(C)C)cc2)n1" .
A. t

Q. Please let me know the test result on file for "Cc1ccc(C(=O)COC(=O)c2cccs2)cc1" .
A. t

Q. Please let me know the test result on file for "Nc1nc(Nc2ccc(Cl)cc2)nc2ccccc12" .
A. t

Q. Please let me know the test result on file for "CCOc1ccc(-c2cc(CCCC(=O)NCCCOC)no2)cc1" .
A. t
